Hello, the source for this data is patent US10836763B2, in case you need it.

Documented concentration at 5 h across a set of compounds
Assay: Lung and plasma drug concentration in the murine IL-13 pSTAT6 model
Assay type: in vivo
Conditions: mouse, plasma, other: oral aspiration, 50 µg/mouse; Balb/c mice, 1 mg/mL, 50 μL oral aspiration, 5 hr post dose; read-out: Plasma Concentration (ng/mL) at 5 hr
metric-name: concentration at 5 h (ng/mL)

[[record]]
molecular_string = "CCc1cc(O)ccc1-c1ccc2c(-c3nc4c([nH]3)CN(C)[C@H](C(=O)N3CCN(CCO)C[C@H]3C)C4)n[nH]c2c1"
measured = 13

[[record]]
molecular_string = "CCCN1Cc2[nH]c(-c3n[nH]c4cc(-c5ccc(O)cc5CC)ccc34)nc2C[C@H]1C(=O)N1C[C@@H]2C[C@H]1CN2C"
measured = 17.5

[[record]]
molecular_string = "CCc1cc(O)ccc1-c1ccc2c(-c3nc4c([nH]3)CN(C(C)C)[C@H](C(=O)N3CCCN(C)CC3)C4)n[nH]c2c1"
measured = 22

[[record]]
molecular_string = "CCc1cc(O)ccc1-c1ccc2c(-c3nc4c([nH]3)CN(C(C)C)[C@H](C(=O)N3CC[C@H](N(C)C)C3)C4)n[nH]c2c1"
measured = 11.3

[[record]]
molecular_string = "CCCN1Cc2[nH]c(-c3n[nH]c4cc(-c5ccc(O)cc5CC)ccc34)nc2C[C@H]1C(=O)N1CCN(CCO)CC1"
measured = 10.3

